system: HCC 2998; experiment: NCI tumour cell line growth inhibition, 48 h
Calls of active or inactive are those of the source. Cut-off read from the data, not from the text of the source: active = GI50 up to about 1.1 µM and inactive = higher.
Field: GI50. Provide a value for each of the compounds that follow.

Challenge: Write down measured GI50 (HCC 2998) for this compound. COc1cc(-c2cn(S(=O)(=O)c3ccc(C)cc3)c3ccccc23)nc(-c2cn(S(=O)(=O)c3ccc(C)cc3)c3ccccc23)n1
Response given: 0.516 µM (active)

Challenge: Write down measured GI50 (HCC 2998) for this compound. O=c1ccn(COC(COCc2ccccc2)COCc2ccccc2)c(=O)[nH]1
Response given: > 100 µM (inactive)

Challenge: Write down measured GI50 (HCC 2998) for this compound. N#CNc1nc(N)c(-c2ccc(Cl)cc2)c(C(=O)Nc2nccs2)n1
Response given: > 100 µM (inactive)

Challenge: Write down measured GI50 (HCC 2998) for this compound. C[Si](C)(C)OC1CC(=O)OC1n1cc(F)c(=O)[nH]c1=O (stereo not given)
Response given: 0.759 µM (active)

Challenge: Write down measured GI50 (HCC 2998) for this compound. CC(=O)[C@H]1CC[C@H]2[C@@H]3CCC4=CC(=O)CC[C@]4(C)[C@H]3CC[C@]12C
Response given: 16.9 µM (inactive)

Challenge: Write down measured GI50 (HCC 2998) for this compound. CCN(CC)/N=N/c1c(C(N)=O)n[nH]c1C
Response given: > 100 µM (inactive)

Challenge: Write down measured GI50 (HCC 2998) for this compound. CSC(SC)=C1Sc2cccc(Cl)c2S1
Response given: 15.8 µM (inactive)

Challenge: Write down measured GI50 (HCC 2998) for this compound. Cc1nn(C(=O)CC(=O)Nc2ccc(Cl)cc2)c(C)c1/N=N/c1ccccc1C(=O)O
Response given: > 100 µM (inactive)

Challenge: Write down measured GI50 (HCC 2998) for this compound. Cc1ccc(/C=C2\Sc3scc(-c4ccccc4)[n+]3C2=O)cc1
Response given: 27.7 µM (inactive)

Challenge: Write down measured GI50 (HCC 2998) for this compound. C[C@@H]1CC[C@]2(C)C3(C)CC[C@]2(OC3=O)[C@@]12CC(c1ccoc1)OC2=O (stereo not given in full)
Response given: > 100 µM (inactive)

* * *

system: M14; experiment: NCI tumour cell line growth inhibition, 48 h
Calls of active or inactive are those of the source. No stated cut-off is given here; in the data, active = GI50 up to about 1.1 µM and inactive = higher.
Thanks in advance; please answer with one of these: TRUE = active, FALSE = inactive

Challenge: Record lookup: outcome of this test for O=C1CC[C@@]2(O)[C@H]3Cc4ccc(-c5ccccc5)c5c4[C@@]2(CCN3CC2CC2)[C@H]1O5 ?
Response given: FALSE

Challenge: Record lookup: outcome of this test for S=C1c2ccc(Cl)cc2-n2cnnc2C2CSCN12 (stereo unspecified) ?
Response given: FALSE

Challenge: Record lookup: outcome of this test for CN(CCc1ccccn1)C(=S)N/N=C/c1ccccn1 ?
Response given: TRUE

Challenge: Record lookup: outcome of this test for Cc1c(C#N)c(N)n(C2OCC(O)C(O)C2O)c(=S)c1C#N (stereo unspecified) ?
Response given: FALSE

Challenge: Record lookup: outcome of this test for CC(=O)C(=[N+]=[N-])C(=O)NCC#N ?
Response given: FALSE

Challenge: Record lookup: outcome of this test for COc1ccc2c(c1)N=C1CSC(c3cccc(Br)c3)N1C2 (stereo unspecified) ?
Response given: FALSE
